Record form. Attribute: pIC50. Fill in for each entry.
- Tested target: HIV "Reverse Transcriptase" (Human immunodeficiency virus type 1 group M subtype B, UniProt P04585)
pIC50: −log10 of the molar value.

# count of solved cases: 4
{"columns": ["Compound", "pIC50"],
 "data": [
  ["CC1(C)C(=S)Nc2ccc(Cl)cc2C1=NOCc1ccc(Cl)cc1 [Example 27]", "4.58 to 5.58"],
  ["CON=C1c2cc(Cl)ccc2NC(=S)C1(C)C [Example 35]", "7.43 to 8.43"],
  ["CSCCON=C1c2cc(Cl)ccc2NC(=S)C1(C)C [Example 50]", "6.52 to 7.52"],
  ["CC1(C)C(=O)Nc2ccc(Cl)cc2C1=NOCc1ccccc1 [Example 10A]", "< 4.52"]
]}

Next compound, please.
Request: Retrieve pIC50 measured for CCON=C1c2cc(Cl)ccc2NC(=O)C12CCC2 [Example 114] and print it.
Result: 7.67

* * *

- Tested target: HIV "Reverse Transcriptase" (Human immunodeficiency virus type 1 group M subtype B, UniProt P04585)
Quantity measured: IC50

// known answers, use as guide
{"columns": ["Smiles string", "IC50"],
 "data": [
  ["CCCON=C1c2cc(Cl)ccc2NC(=S)C1(C)C", "0.00337 to 0.0337 µM"],
  ["CCON=C1c2cc(Cl)ccc2NC(=S)C12CCC2", "0.00339 to 0.0339 µM"],
  ["C=CCON=C1c2cc(Cl)ccc2NC(=S)C1(C)C", "0.00339 to 0.0339 µM"],
  ["CC1(C)C(=S)Nc2ccc(Cl)cc2C1=NOCc1ccccc1", "0.29 to 2.9 µM"]
]}

Request: Provide one value: measured IC50 of CC1(C)C(=O)Nc2ccc(Cl)cc2C1=NOCc1cccc(Cl)c1
Result: 0.275 to 2.75 µM
